assay: Solubility of the API (product profile); type: physicochemical; details: in water
Readout Label: solubility (µg/mL)
Numbers only, in µg/mL.

Which solubility is listed for `CNC(=O)c1ccccc1Sc1ccc2c(/C=C/c3ccccn3)n[nH]c2c1` ?
0.2

---

assay: Ocular distribution and pharmacokinetics after suprachoroidal injection of CLS-AX, 0.03 or 0.1 mg/eye (second study); type: in vivo, male pigmented Dutch Belted rabbits; conditions: male, Dutch Belted, rabbit, topical or ocular; retina; 0.1 mg/eye; study day 2
Readout Label: Cmax (ng/g)
Answers are plain numbers, in ng/g.

Which Cmax is listed for `CNC(=O)c1ccccc1Sc1ccc2c(/C=C/c3ccccn3)n[nH]c2c1` ?
6260

---

experiment: Ocular distribution and pharmacokinetics after suprachoroidal injection of CLS-AX, 0.03 or 0.1 mg/eye (second study); type: in vivo, male pigmented Dutch Belted rabbits; settings: male, Dutch Belted, rabbit, sclera/choroid-RPE (SCR), other: suprachoroidal injection; SCR; 0.1 mg/eye
Readout Label: half-life (days)
Answers are plain numbers, in days.

Which half-life is listed for CNC(=O)c1ccccc1Sc1ccc2c(/C=C/c3ccccn3)n[nH]c2c1 [Axitinib] ?
15.8

---

experiment: Ocular distribution and pharmacokinetics after suprachoroidal injection of CLS-AX, 0.03 or 0.1 mg/eye (second study); type: in vivo, male pigmented Dutch Belted rabbits; settings: male, Dutch Belted, rabbit, topical or ocular; retina; 0.03 mg/eye; study day 2
Readout Label: Cmax (ng/g)
One number for each entry, in ng/g.

Which Cmax is listed for CNC(=O)c1ccccc1Sc1ccc2c(/C=C/c3ccccn3)n[nH]c2c1 [Axitinib] ?
4480

---

test: in vivo; conditions: male, Dutch Belted, rabbit, topical or ocular, 4 mg
Readout Label: half-life (days)
Give bare numbers, in days.

Which half-life is listed for `CNC(=O)c1ccccc1Sc1ccc2c(/C=C/c3ccccn3)n[nH]c2c1` ?
102

Data provenance: patent US20230089914A1
